Tested on: IGROV1 ovarian
assay-details: NCI-60 one-dose screen, 48 h (100 = growth as untreated, 0 = no growth, -100 = all killed)
condition-label: 10 µM
About 83,000 compounds went through this panel and 20% of them were active in at least one assay; those are over-represented in the sample as a whole.
// thresholds for growth classes: bottom end (below 30%), midrange (30% to below 90%), top end (90% or more)

- molecule: "Fc1ccc(C2=NN(c3ccccc3)C(c3sc(N(CCCl)CCCl)nc3Cl)C2)cc1 (centres undefined)"
  label: "midrange"
- molecule: "CCC[CH2][Sn]([CH2]CCC)([CH2]CCC)[O]C(=O)c1ccc(Cl)cc1Cl"
  label: "bottom end"
- molecule: "NC(=O)NC(=O)CI"
  label: "midrange"
- molecule: "Cc1cc(NC(=O)NCCOc2ccc(N3C(N)=NC(N)=NC3(C)C)cc2Cl)ccc1S(=O)(=O)F"
  label: "midrange"
- molecule: "C[C@@H]1O[C@@H](O[C@H]2CC[C@@]3(C)[C@H](CCC4[C@@H]3C(O)C[C@]3(C)[C@@H](c5ccc(=O)oc5)CC[C@]43O)C2)[C@H](O)[C@H](O)[C@H]1O (some centres undefined)"
  label: "bottom end"
- molecule: "Cc1nnc([S-])s1.[Au+].c1ccc([PH+](c2ccccc2)c2ccccc2)cc1"
  label: "bottom end"
- molecule: "CCCCCCCCCCOc1ccc(C(=O)Oc2ccc(CSP3(=O)OCC4OC(n5ccc(=O)[nH]c5=O)C(F)C4OP(=O)(O)OCC4OC(n5cnc6c(N)ncnc65)C(F)C4O3)cc2)cc1 (centres undefined)"
  label: "top end"
- molecule: "CSc1ccccc1NP1(=O)OCC(C)([N+](=O)[O-])CO1 (centres undefined)"
  label: "top end"
- molecule: "O=C(CCl)NCNC(=O)CCl"
  label: "midrange"
- molecule: "C[C@]12CCC(=O)CC1CC[C@@H]1C2CC[C@@]2(C)C1CC[C@@H]2OC(=O)CC[Se][Se]CCC(=O)O[C@H]1CCC2[C@@H]3CCC4CC(=O)CC[C@]4(C)C3CC[C@@]21C (some centres undefined)"
  label: "top end"
- molecule: "Oc1c(Br)cc(Br)cc1Br.[Cu+2]"
  label: "top end"
- molecule: "CC(C)Nc1ccc(Nc2ccccc2)cc1"
  label: "bottom end"
- molecule: "CCC(CC)(c1ccccc1)C(OC(N)=O)c1ccccc1 (centres undefined)"
  label: "midrange"
- molecule: "CO[C@@H]1[C@H](OC(=O)NC(=O)CCl)CC[C@]2(CO2)[C@H]1[C@@]1(C)O[C@@H]1CC=C(C)C"
  label: "bottom end"
- molecule: "CC(=O)N1N=C(c2ccccc2)CC1c1sc(N(CCCl)CCCl)nc1Cl (centres undefined)"
  label: "top end"
- molecule: "O=S(=O)(c1ccc(Cl)cc1)C(Cl)(Cl)Cl"
  label: "midrange"
- molecule: "CC(=O)Nc1ccc(C=C2C(=O)NC(=O)NC2=O)cc1"
  label: "top end"
